# System: MS2 coat protein
# Measurement Description: apparent Kd, MS2 coat protein; higher = weaker binding; RNA-MaP array; theophylline 2 mM where present
# Measurement Context: designed as: OFF switch for theophylline; no ligand
Cut-off 100 nM on apparent Kd, inclusive. At or above means 1 (yes); below means 0 (no).

[[record]]
sequence_code = "AAGCUGCCAAGAACAUGGGUGAAAUGUGAUACCAGCUAGGAAACUAGCCCUUGGCAGCACAUGAGGAUCACCCAUGUAAUAAUAA"
measurement_target = "MS2 coat protein"
group_label = "1 (yes)"

[[record]]
sequence_code = "AUACCUAUUGAGUCGUGUUUCUAUUCAGAUACCAGACUUUUCGUUGUCCCUUGGCAGCUGUUUUACAUGAGGAUCACCCAUGUUG"
measurement_target = "MS2 coat protein"
group_label = "0 (no)"

[[record]]
sequence_code = "CUCGAGUUAUGAGAUACCAGACUAUAGUUUACAUGAGGAUCACCCAUGUUAUGGGUGGUGGUCCCUUGGCAGCUCAUAUGUUUAA"
measurement_target = "MS2 coat protein"
group_label = "0 (no)"

[[record]]
sequence_code = "UCGCACAUGAGGAUCACCCAUGUACUAGAUACCAGUGACGCGGUGCACCCUUGGCAGCUGGUGCUGAGUGAUGGUUCCCUCGGCA"
measurement_target = "MS2 coat protein"
group_label = "1 (yes)"

[[record]]
sequence_code = "GAUGAUAUUGCAGAUACCAGACACAUGAGGAUCACCCAUGUCGCUGAGAUGCUGGAUCGUGUCCCUUGGCAGCUGCGAUAUCAUC"
measurement_target = "MS2 coat protein"
group_label = "0 (no)"

[[record]]
sequence_code = "AAUAAGUAUCUGCUAGGUGAUCCAGCAGAUACCAGCUAGGAAACUAGCCCUUGGCAGCUGCAACAUGAGGAUCACCCAUGUAAUA"
measurement_target = "MS2 coat protein"
group_label = "1 (yes)"

[[record]]
sequence_code = "GAUGAACUAUAUGAUACCAGACAACAUGAGGAUCACCCAUGUGAUUGUCGUCCUCUGCCUGUCCCUUGGCAGCGUAUAGUUUAUC"
measurement_target = "MS2 coat protein"
group_label = "0 (no)"

